Recorded LEL larval photomotor response dark phase 120 hpf for the following compounds
# System: Danio rerio embryo
# Method description: LEL larval photomotor response dark phase 120 hpf
Reported endpoint: LEL larval photomotor response dark phase 120 hpf

{"columns": ["Compound", "Assay value"],
 "data": [
  ["Oc1c(Cl)cc(Cl)cc1Sc1cc(Cl)cc(Cl)c1O", "> 100 µM"],
  ["Cc1ccc2c(c1)c1c3n2CCNC3CCC1 (stereo unspecified)", "> 100 µM"],
  ["Cl.Cl.OCCOCCN1CCN(Cc2cccc(Oc3ccccc3)c2)CC1", "33.3 µM"],
  ["CC1(C)C=Cc2c(ccc3c2OC[C@@H](c2ccc(O)cc2O)C3)O1", "> 100 µM"],
  ["COc1ccc(-c2oc3cc(OC)c(OC)c(O)c3c(=O)c2OC)cc1O", "> 100 µM"],
  ["CCCCCCCCCCCCCCCC[n+]1ccn(Cc2ccccc2)c1C.[I-]", "> 100 µM"],
  ["C/C=C/C[C@@H](C)[C@@H](O)[C@H]1C(=O)N[C@@H]([C@@H](C)O)C(=O)N(C)CC(=O)N(C)[C@@H](CC(C)C)C(=O)N[C@@H](C(C)C)C(=O)N(C)[C@@H](CC(C)C)C(=O)N[C@@H](C)C(=O)N[C@H](C)C(=O)N(C)[C@@H](CC(C)C)C(=O)N(C)[C@@H](CC(C)C)C(=O)N(C)[C@@H](C(C)C)C(=O)N1C", "3.7 µM"],
  ["CCOC(=O)c1c(CSc2ccccc2)n(C)c2cc(Br)c(O)c(CN(C)C)c12.Cl", "> 100 µM"],
  ["C[C@H]1CO[C@@H]2Cn3cc(C(=O)NCc4ccc(F)cc4F)c(=O)c(O)c3C(=O)N12", "> 100 µM"],
  ["CC[C@H]1CN2CCc3cc(OC)c(OC)cc3[C@@H]2C[C@@H]1C[C@H]1NCCc2cc(O)c(OC)cc21", "0.41 µM"],
  ["Ic1cccc(/C=N/Nc2nc(N3CCOCC3)nc(N(c3ccccc3)c3ccccc3)n2)c1", "> 100 µM"],
  ["CCN(CC)CCOc1ccc2c(c1)C(=O)c1cc(OCCN(CC)CC)ccc1-2.Cl.Cl", "> 100 µM"],
  ["CC(C)(C)Oc1cccc2nc(N)nc(N)c12", "> 100 µM"],
  ["COc1oc(=O)c2cc(N)ccc2c1Cl", "11.1 µM"],
  ["CC(C)(C)C1=C(O)C(C(C)(C)C)=CC(/C=C(C#N)\\C#N)=C1", "> 100 µM"],
  ["CC(=O)c1c(O)cc(O)cc1O.O", "> 100 µM"]
]}

----------
# Tested on: Danio rerio embryo
# Method description: BMC10 any morphological effect or mortality at 120 hpf; higher = less toxic
Reported endpoint: BMC10 any morphological effect or mortality

{"columns": ["Compound", "Subject of test", "Assay value"],
 "data": [
  ["CC(C)(O)[C@@H]1CC[C@](C)([C@H]2[C@@H](O)C[C@@]3(C)[C@@H]4C[C@H](O[C@@H]5O[C@H](CO)[C@@H](O)[C@H](O)[C@H]5O)[C@H]5C(C)(C)[C@@H](O[C@@H]6OC[C@@H](O)[C@H](O)[C@H]6O)CC[C@@]56C[C@@]46CC[C@]23C)O1 [Astragaloside IV]", "Danio rerio embryo", "> 100 µM"],
  ["Cc1cn([C@@H]2C[C@@H](O)[C@H](CO)O2)c(=O)[nH]c1=O", "Danio rerio embryo", "> 100 µM"],
  ["Nc1nc(S)c2nc[nH]c2n1", "Danio rerio embryo", "> 100 µM"]
]}

----------
# System: Danio rerio embryo
# Method description: LEL larval photomotor response dark phase 120 hpf
Reported endpoint: LEL larval photomotor response dark phase 120 hpf

{"columns": ["Compound", "Assay value"],
 "data": [
  ["Fc1cc(F)c2c(c1)C1C=CCC1C(c1cccnc1)N2 (stereo unspecified) [Golgicide A]", "> 100 µM"],
  ["CC[C@@]1([C@@H]2O[C@@H]([C@H]3O[C@@](O)(CO)[C@H](C)C[C@@H]3C)C[C@@H]2C)CC[C@H]([C@]2(C)CC[C@]3(C[C@H](O)[C@@H](C)[C@@H]([C@@H](C)[C@@H](OC)[C@H](C)C(=O)[O-])O3)O2)O1.[Na+]", "0.005 µM"],
  ["C=C[C@H](OC(C)=O)c1ccc(OC(C)=O)cc1 (racemic) [(±)-1'-Acetoxychavicol acetate]", "> 100 µM"],
  ["O=C(NCCO)c1cccc(-c2cc(Nc3ccc(OC(F)(F)F)cc3)ncn2)c1", "33.3 µM"],
  ["COc1cccc2c1C(=O)c1c(O)c3c(c(O)c1C2=O)C[C@@](O)(C(=O)CO)C[C@@H]3O[C@H]1C[C@H](N)[C@H](O)[C@H](C)O1.Cl", "> 100 µM"],
  ["N#C/C(=C\\c1ccc(O)c(O)c1)C(=O)NCCCc1ccccc1", "> 100 µM"]
]}

----------
# System: Danio rerio embryo
# Method description: BMC10 any morphological effect or mortality at 120 hpf; higher = less toxic
Reported endpoint: BMC10 any morphological effect or mortality (µM)

{"columns": ["Item smiles", "Comparison operator", "Assay value"],
 "data": [
  ["C=C(C)[C@@H]1CC[C@]2(C=O)CC[C@]3(C)[C@H](CC[C@@H]4[C@@]5(C)CC[C@H](O)C(C)(C)[C@@H]5CC[C@]43C)[C@@H]12", ">", 100],
  ["CN1CCN(CCOc2cc(OC3CCOCC3)c3c(Nc4c(Cl)ccc5c4OCO5)ncnc3c2)CC1", "=", 15.5],
  ["CC(C)C[C@H](NC(=O)[C@H](Cc1ccccc1)NC(=O)c1cnccn1)B(O)O", "=", 13.2],
  ["O[C@H]1CC[C@H](Nc2nc(-c3ccccc3)nc3[nH]ccc23)CC1", "=", 22.7],
  ["O=c1ccc2cc3ccoc3cc2o1", "=", 29.2],
  ["Nc1ccn([C@@H]2O[C@H](CO)[C@@H](O)[C@@H]2O)c(=O)n1", ">", 100],
  ["COc1cnc(-n2cnc(C)n2)c2[nH]cc(C(=O)C(=O)N3CCN(C(=O)c4ccccc4)CC3)c12", ">", 100],
  ["CCC[C@H](NC(=O)[C@@H]1[C@H]2CCC[C@H]2CN1C(=O)[C@@H](NC(=O)[C@@H](NC(=O)c1cnccn1)C1CCCCC1)C(C)(C)C)C(=O)C(=O)NC1CC1", ">", 100]
]}

----------
Recorded BMC10 any morphological effect or mortality for the following molecules
# System: Danio rerio embryo
# Method description: BMC10 any morphological effect or mortality at 120 hpf; higher = less toxic
Reported endpoint: BMC10 any morphological effect or mortality

{"columns": ["Molecule", "Assay value"],
 "data": [
  ["CCCCN(CCCC)CC(O)c1cc(Cl)cc2c1-c1ccc(Cl)cc1/C2=C/c1ccc(Cl)cc1 (stereo not drawn)", "> 100 µM"],
  ["OC[C@H]1O[C@@H](O[C@H]2C(O)O[C@H](CO)[C@@H](O)[C@@H]2O)[C@H](O)[C@@H](O)[C@@H]1O (stereo partly drawn)", "> 100 µM"],
  ["O=C(/C=C/c1ccc(O)c(O)c1)O[C@@H](C(=O)O)[C@@H](OC(=O)/C=C/c1ccc(O)c(O)c1)C(=O)O", "> 100 µM"]
]}

----------
# System: Danio rerio embryo
# Method description: BMC10 any morphological effect or mortality at 120 hpf; higher = less toxic
Reported endpoint: BMC10 any morphological effect or mortality

{"columns": ["Compound", "Assay value"],
 "data": [
  ["CC(C)(C)C#Cc1cc(N(C(=O)[C@H]2CC[C@H](C)CC2)[C@H]2CC[C@@H](O)CC2)c(C(=O)O)s1 [Lomibuvir]", "> 100 µM"],
  ["CC(=O)Oc1ccccc1C(=O)O [Aspirin]", "> 100 µM"],
  ["O[C@H]1[C@@]2([H])[C@](CC[C@]2([H])[C@@](CC/C=C(C)/C)(C)O[C@@H]3O[C@H](CO[C@H]4[C@H](O)[C@@H](O)[C@@H](O)CO4)[C@@H](O)[C@H](O)[C@H]3O)(C)[C@]5(C)CC[C@]6([H])[C@@](CC[C@H](O[C@]7([H])O[C@H](CO)[C@@H](O)[C@H](O)[C@H]7O[C@@]8([H])[C@H](O)[C@@H](O)[C@H](O)[C@@H](CO)O8)C6(C)C)(C)[C@@]5([H])C1 [Ginsenoside Rb2]", "> 100 µM"]
]}

----------
Recorded BMC10 any morphological effect or mortality for the following compounds
# Test system: Danio rerio embryo
# Method description: BMC10 any morphological effect or mortality at 120 hpf; higher = less toxic
Reported endpoint: BMC10 any morphological effect or mortality

{"columns": ["Compound", "Assay value"],
 "data": [
  ["C=CC(C)(C)c1cc(/C=C/C(=O)c2ccc(O)cc2)c(OC)cc1O [Licochalcone A]", "0.64 µM"],
  ["COc1ccc2c(c1)CC[C@@H]1[C@@H]2CC[C@]2(C)[C@@H](NCCCCCCN3C(=O)C=CC3=O)CC[C@@H]12", "0.134 µM"],
  ["CC(C)(C)Oc1cccc2nc(N)nc(N)c12 [HZ-1157]", "> 100 µM"],
  ["C[C@H]1CC[C@@]2(OC1)O[C@H]1C[C@H]3[C@@H]4CC[C@@H]5C[C@@H](O[C@@H]6O[C@H](CO)[C@H](O)[C@H](O)[C@H]6O[C@@H]6O[C@H](CO)[C@@H](O)[C@H](O)[C@H]6O)CC[C@]5(C)[C@H]4CC[C@]3(C)[C@H]1[C@@H]2C [Timosaponin AIII]", "> 100 µM"],
  ["COc1c(-c2ccc3cc(NS(C)(=O)=O)ccc3c2)cc(-n2ccc(=O)[nH]c2=O)cc1C(C)(C)C [Dasabuvir]", "> 100 µM"],
  ["Oc1c(Cl)cc(Cl)cc1Sc1cc(Cl)cc(Cl)c1O [Bithionol]", "0.577 µM"],
  ["C=C[C@@H]1C2=CCOC(=O)C2=CO[C@H]1O[C@@H]1O[C@H](CO)[C@@H](O)[C@H](O)[C@H]1O [Gentiopicrin]", "> 100 µM"],
  ["CN1Cc2c(ccc3c2OCO3)[C@@H]2[C@H]1c1cc3c(cc1C[C@@H]2O)OCO3 [Chelidonine]", "0.064 µM"],
  ["Nc1ccc(-c2nc3ccc(-c4nc5cc(N)ccc5[nH]4)cc3[nH]2)cc1 [Ro 90-7501]", "> 100 µM"],
  ["C/C1=C/CC/C(C)=C/CC(C)(C)/C=C/C1=O [Zerumbone]", "2.66 µM"],
  ["CC(C)Cc1ncc(Cc2ccccc2)[nH]c1=O [Pheleuin]", "> 100 µM"],
  ["Nc1nc(=O)c2ncn(COC(CO)CO)c2[nH]1 [Ganciclovir]", "> 100 µM"],
  ["CNc1ncnc2c1ncn2[C@@H]1O[C@H](CO)[C@@H](O)[C@H]1O [N6-Methyladenosine]", "> 100 µM"],
  ["C[C@H]1CO[C@@H]2Cn3cc(C(=O)NCc4ccc(F)cc4F)c(=O)c(O)c3C(=O)N12 [Cabotegravir]", "> 100 µM"],
  ["CCC[C@H](NC(=O)/C(C#N)=C/c1cccc(Br)n1)c1ccccc1 [Degrasyn]", "0.411 µM"],
  ["Oc1ccc(/C=C\\c2cc(O)cc(O)c2)cc1 [Resveratrol]", "> 100 µM"],
  ["COc1cc2c(=O)c(-c3ccc(O)cc3)coc2cc1O[C@@H]1O[C@H](CO)[C@@H](O)[C@H](O)[C@H]1O [Glycitin]", "> 100 µM"],
  ["NC(=O)c1ccc(I)c([N+](=O)[O-])c1 [Iniparib]", "10.2 µM"],
  ["CC[C@H](NC(=O)[C@H](C)NC)C(=O)N1C[C@@H](O)C[C@H]1Cc1c(-c2[nH]c3cc(F)ccc3c2C[C@@H]2C[C@H](O)CN2C(=O)[C@H](CC)NC(=O)[C@H](C)NC)[nH]c2cc(F)ccc12 [Birinapant]", "> 100 µM"],
  ["CC(C)CC(=O)N[C@H](C(=O)N[C@H](C(=O)N[C@@H](CC(C)C)[C@@H](O)CC(=O)N[C@@H](C)C(=O)N[C@@H](CC(C)C)[C@@H](O)CC(=O)O)C(C)C)C(C)C [Pepstatin A]", "> 100 µM"]
]}

These data points were gathered from the supplement of paper PMC11821682.
